Notes on pKi obtained with Androgen receptor (Rattus norvegicus, UniProt P15207).
Sequence (P15207 whole entry S389L): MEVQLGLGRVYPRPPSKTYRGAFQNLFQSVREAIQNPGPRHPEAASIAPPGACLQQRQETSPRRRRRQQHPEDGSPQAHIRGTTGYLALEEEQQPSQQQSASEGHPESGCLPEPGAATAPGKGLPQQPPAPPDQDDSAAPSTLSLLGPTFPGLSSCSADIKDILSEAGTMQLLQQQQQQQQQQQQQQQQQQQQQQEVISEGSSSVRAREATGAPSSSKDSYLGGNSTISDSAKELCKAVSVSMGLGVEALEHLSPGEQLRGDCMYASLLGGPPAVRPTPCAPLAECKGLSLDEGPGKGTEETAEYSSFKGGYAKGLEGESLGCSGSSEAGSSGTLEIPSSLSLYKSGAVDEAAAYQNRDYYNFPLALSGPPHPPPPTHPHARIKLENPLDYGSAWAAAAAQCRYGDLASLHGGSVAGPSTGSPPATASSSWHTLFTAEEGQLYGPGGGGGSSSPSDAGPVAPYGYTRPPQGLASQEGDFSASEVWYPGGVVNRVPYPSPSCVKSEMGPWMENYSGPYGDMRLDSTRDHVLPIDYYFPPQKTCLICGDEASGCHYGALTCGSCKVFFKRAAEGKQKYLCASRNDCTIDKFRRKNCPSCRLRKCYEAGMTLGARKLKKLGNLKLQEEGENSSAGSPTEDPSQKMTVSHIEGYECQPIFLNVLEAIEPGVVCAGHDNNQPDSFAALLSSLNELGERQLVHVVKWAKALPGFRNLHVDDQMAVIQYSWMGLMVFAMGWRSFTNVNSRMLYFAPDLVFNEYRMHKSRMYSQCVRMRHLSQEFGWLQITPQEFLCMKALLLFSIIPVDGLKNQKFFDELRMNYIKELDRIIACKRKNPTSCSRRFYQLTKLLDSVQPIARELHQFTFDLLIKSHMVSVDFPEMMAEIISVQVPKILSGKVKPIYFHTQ
Note on pKi: it is the negative log10 of concentration, concentration in mol/L.

Sample records with pKi:
| molecule | pKi |
| --- | --- |
| CCC(=O)N(C(=O)CC)c1ccc(SC[C@](C)(O)C(=O)Nc2ccc(C#N)c(C(F)(F)F)c2)cc1 | 6.18 |
| CC(=O)Nc1ccc(SC[C@](C)(O)C(=O)Nc2ccc(C#N)c(C(F)(F)F)c2)cc1 [ACETOTHIOLUTAMIDE] | 8.31 |
| C[C@](O)(CSc1ccc(NC(=O)C(F)(F)F)cc1)C(=O)Nc1ccc([N+](=O)[O-])c(C(F)(F)F)c1 | 8.59 |
| CC(=O)Nc1ccc(S(=O)(=O)C[C@@](C)(O)C(=O)Nc2ccc([N+](=O)[O-])c(C(F)(F)F)c2)cc1 | 6.23 |
| C[C@](O)(CBr)C(=O)Nc1ccc2c(C(F)(F)F)cc(=O)oc2c1 | 6.88 |
| C[C@](O)(CS(=O)(=O)c1ccc(NS(C)(=O)=O)cc1)C(=O)Nc1ccc([N+](=O)[O-])c(C(F)(F)F)c1 | 7.82 |
| CC(=O)N(C(C)=O)c1ccc(SC[C@](C)(O)C(=O)Nc2ccc(C#N)c(C(F)(F)F)c2)cc1 | 6.98 |
| CC(=O)Nc1ccc(S(=O)(=O)C[C@](C)(O)C(=O)Nc2ccc(C#N)c(C(F)(F)F)c2)cc1 | 7.80 |

Query :: Form field - read-out: pKi; system: Androgen receptor (Rattus norvegicus, UniProt P15207); submitted item: Cc1cc(=O)oc2cc(NC(=O)[C@@](C)(O)CSc3ccc(F)cc3)ccc12
Result :: 7.04

Query :: Form field - read-out: pKi; system: Androgen receptor (Rattus norvegicus, UniProt P15207); submitted item: CC(=O)Nc1ccc(SC[C@](C)(O)C(=O)Nc2ccc([N+](=O)[O-])c(C(F)(F)F)c2)cc1
Result :: 8.54

Query :: Form field - read-out: pKi; system: Androgen receptor (Rattus norvegicus, UniProt P15207); submitted item: CC(=O)Nc1ccc(SC[C@@](C)(O)C(=O)Nc2ccc(C#N)c(C(F)(F)F)c2)cc1
Result :: 5.86

* * *

tgt: Androgen receptor (Rattus norvegicus, UniProt P15207)
pKi: −log10 of the molar value.
Decide using pKi: a value greater than or equal to 7 is Satisfied, a smaller one is Not satisfied.

| compound structure | class name |
| --- | --- |
| CCC(=O)Nc1ccc(SC[C@](C)(O)C(=O)Nc2ccc(C#N)c(C(F)(F)F)c2)cc1 | Satisfied |
| C[C@](O)(CS(=O)(=O)c1ccc(NC(=O)CCl)cc1)C(=O)Nc1ccc([N+](=O)[O-])c(C(F)(F)F)c1 | Satisfied |
| C[C@](O)(CS(=O)(=O)c1ccc(N)cc1)C(=O)Nc1ccc(C#N)c(C(F)(F)F)c1 | Satisfied |
| C[C@](O)(CSc1ccc(N)cc1)C(=O)Nc1ccc([N+](=O)[O-])c(C(F)(F)F)c1 | Satisfied |
| C[C@](O)(CS(=O)(=O)c1ccc(NC(=O)C(F)(F)F)cc1)C(=O)Nc1ccc([N+](=O)[O-])c(C(F)(F)F)c1 | Satisfied |
| C[C@@](O)(CBr)C(=O)Nc1ccc2c(C(F)(F)F)cc(=O)oc2c1 | Not satisfied |
| C[C@](O)(CSc1ccc(NS(C)(=O)=O)cc1)C(=O)Nc1ccc([N+](=O)[O-])c(C(F)(F)F)c1 | Satisfied |
| C[C@@](O)(CSc1ccc(N)cc1)C(=O)Nc1ccc([N+](=O)[O-])c(C(F)(F)F)c1 | Not satisfied |
| C[C@@](O)(CS(=O)(=O)c1ccc(NC(=O)CCl)cc1)C(=O)Nc1ccc([N+](=O)[O-])c(C(F)(F)F)c1 | Not satisfied |
| C[C@](O)(CSc1ccc(NC(=O)CCl)cc1)C(=O)Nc1ccc([N+](=O)[O-])c(C(F)(F)F)c1 | Satisfied |

Query :: Determine whether measured pKi meets or exceeds 7 for C[C@](O)(CSc1ccc(N)cc1)C(=O)Nc1ccc2c(C(F)(F)F)cc(=O)oc2c1
Result :: Not satisfied
